experimental-protocol: Binding affinity to GC(d(GC)7) oligonucleotide assessed as melting temperature at pH 7.4 by thermal denaturation assay
measured-metric: Tm (°C)

O=[N+]([O-])c1ccc(/C=C/CSSC/C=C/c2ccc([N+](=O)[O-])cc2)cc1	94
Clc1ccccc1/C=C/CSSC/C=C/c1ccccc1Cl	93
Brc1ccccc1/C=C/CSSC/C=C/c1ccccc1Br	92
Clc1ccc(/C=C/CSSC/C=C/c2ccc(Cl)cc2Cl)c(Cl)c1	93
FC(F)(F)c1ccc(/C=C/CSSC/C=C/c2ccc(C(F)(F)F)cc2)cc1	91
Brc1ccc(/C=C/CSSC/C=C/c2ccc(Br)cc2Br)c(Br)c1	93
Fc1ccc(/C=C/CSSC/C=C/c2ccc(F)cc2)cc1	92

---

Tested on: Rattus norvegicus
experimental-protocol: Decrease in serum cholesterol level in hypercholesterolemic Wistar rat at 20 mg/kg, po for 1 week with diet
Format: functional
measured-metric: Activity (mg/dL)
// return numeric value only (unit: mg/dL, not printed)

CC[C@H](C)C(=O)O[C@H]1C[C@@H](C)C=C2C=C[C@H](C)[C@H](CC[C@@H]3C[C@@H](O)CC(=O)O3)[C@H]21	36.21

Ask: Entry Clc1ccc(/C=C/CSSC/C=C/c2ccc(Cl)cc2Cl)c(Cl)c1 has what Activity?
Result: 42.15

Ask: Entry O=[N+]([O-])c1ccc(/C=C/CSSC/C=C/c2ccc([N+](=O)[O-])cc2)cc1 has what Activity?
Result: 38.37

---

experimental-protocol: Binding affinity to AT(d(AT)10) oligonucleotide assessed as change in melting temperature by thermal denaturation assay
measured-metric: ΔTm (°C)

# example entries with known answers
O=[N+]([O-])c1ccc(/C=C/CSSC/C=C/c2ccc([N+](=O)[O-])cc2)cc1	0
Fc1ccc(/C=C/CSSC/C=C/c2ccc(F)cc2)cc1	-1
Clc1ccccc1/C=C/CSSC/C=C/c1ccccc1Cl	-3

[I] FC(F)(F)c1ccc(/C=C/CSSC/C=C/c2ccc(C(F)(F)F)cc2)cc1
[II] Clc1ccc(/C=C/CSSC/C=C/c2ccc(Cl)cc2Cl)c(Cl)c1
[III] Brc1ccc(/C=C/CSSC/C=C/c2ccc(Br)cc2Br)c(Br)c1
Ask: Sort low-to-high on ΔTm, please. Labels, ranked as asked.
Result: III, II, I

---

experimental-protocol: Binding affinity to AT(d(AT)10) oligonucleotide assessed as melting temperature at pH 7.4 by thermal denaturation assay
measured-metric: Tm (°C)

Clc1ccc(/C=C/CSSC/C=C/c2ccc(Cl)cc2Cl)c(Cl)c1	51
Brc1ccc(/C=C/CSSC/C=C/c2ccc(Br)cc2Br)c(Br)c1	50
O=[N+]([O-])c1ccc(/C=C/CSSC/C=C/c2ccc([N+](=O)[O-])cc2)cc1	52
Clc1ccccc1/C=C/CSSC/C=C/c1ccccc1Cl	49
FC(F)(F)c1ccc(/C=C/CSSC/C=C/c2ccc(C(F)(F)F)cc2)cc1	52
Fc1ccc(/C=C/CSSC/C=C/c2ccc(F)cc2)cc1	51
Brc1ccccc1/C=C/CSSC/C=C/c1ccccc1Br	52

---

experimental-protocol: Binding affinity to GC(d(GC)7) oligonucleotide assessed as change in melting temperature by thermal denaturation assay
measured-metric: ΔTm (°C)

Clc1ccccc1/C=C/CSSC/C=C/c1ccccc1Cl	6
FC(F)(F)c1ccc(/C=C/CSSC/C=C/c2ccc(C(F)(F)F)cc2)cc1	4
Brc1ccc(/C=C/CSSC/C=C/c2ccc(Br)cc2Br)c(Br)c1	6
Clc1ccc(/C=C/CSSC/C=C/c2ccc(Cl)cc2Cl)c(Cl)c1	6
Brc1ccccc1/C=C/CSSC/C=C/c1ccccc1Br	5
O=[N+]([O-])c1ccc(/C=C/CSSC/C=C/c2ccc([N+](=O)[O-])cc2)cc1	7
Fc1ccc(/C=C/CSSC/C=C/c2ccc(F)cc2)cc1	5
